# Species: Rattus norvegicus
# experiment: Open TG-GATES - Regimen: Single
# Type: toxicity, organism-based, Sprague-Dawley
# Parameters: regimen Single, gender Male, age 6 weeks
# cond: in vivo, po, 100 mg/kg, 6 h, tissue Blood, route gavage, dose level Low
Here, each record is paired with measured Lym data.
// units = %; emit number, no label

# compound_structure_string, measured_property, unit_info, experimental_result
data = [
    ("O=C(OC[C@H]1O[C@@H](OC(=O)c2cc(O)c(O)c(OC(=O)c3cc(O)c(O)c(O)c3)c2)[C@H](OC(=O)c2cc(O)c(O)c(OC(=O)c3cc(O)c(O)c(O)c3)c2)[C@@H](OC(=O)c2cc(O)c(O)c(OC(=O)c3cc(O)c(O)c(O)c3)c2)[C@@H]1OC(=O)c1cc(O)c(O)c(OC(=O)c2cc(O)c(O)c(O)c2)c1)c1cc(O)c(O)c(OC(=O)c2cc(O)c(O)c(O)c2)c1", "Lym", "%", 78.4),
]

For the next question, use this compound.
Qu. Suppose we examine the compound CNC(=C[N+](=O)[O-])NCCSCc1ccc(CN(C)C)o1 ; what Lym value has been reported?
Ans. 73.2

Source listed as ChEMBL document CHEMBL3885861.
